viability, T/C reference
Tested on: 439559-082-T-J2-PDC spheroid viability
Test: Anticancer human tumor 439559-082-T-J2-PDC patient-derived colon adenocarcinoma cell line growth inhibition [POLQ]
Conditions: second compound 1 µM; first compound 0.1 µM; stronger effect = lower value; spheroids with HUVEC and MSC
Experimental: Multicellular complex tumor spheroid response to Polymerase (POL) inhibitors (novobiocin, ART-558, RP6685) in combination with a variety of drugs and investigational agents in selected tumor cell lines The POL inhibitors (novobiocin, ART-558, and RP6685) were evaluated both individually and in combination with standard of care and investigational anticancer small molecules within a complex spheroid model of solid tumors. . […]
Field: numeric (%). Do not append units.

Previously resolved entries follow.
CCc1cc2c(N3CCc4c(cc(Cn5ccnc5)cc4-c4cn(C)nc4C(F)(F)F)C3=O)ccnc2c(OC)n1 + Cc1cccc(N(C)C(=O)C2C(O)CCN2c2nc(C)cc(C(F)(F)F)c2C#N)c1 : 104
Cn1ncnc1[C@H]1c2n[nH]c(=O)c3cc(F)cc(c23)N[C@@H]1c1ccc(F)cc1 + Cc1cccc(N(C)C(=O)C2C(O)CCN2c2nc(C)cc(C(F)(F)F)c2C#N)c1 : 96.8
CNCc1ccc(-c2[nH]c3cc(F)cc4c3c2CCNC4=O)cc1 + COC1C(OC(N)=O)C(O)C(Oc2ccc3c(O)c(NC(=O)c4ccc(O)c(CC=C(C)C)c4)c(=O)oc3c2C)OC1(C)C : 103

Now for another entry.
For the compound CCc1cc2c(N3CCc4c(cc(Cn5ccnc5)cc4-c4cn(C)nc4C(F)(F)F)C3=O)cc(C)nc2c(OC)n1 + Nc1ccc(C#CCN(C(=O)Cc2ncc(C(F)(F)F)cc2C(F)(F)F)c2ccc(F)cc2)nn1 , what viability, T/C is on record?
95

----------
Test system: 439559-082-T-J2-PDC spheroid viability
Assay: Anticancer human tumor 439559-082-T-J2-PDC cell line growth inhibition [POLQ];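 note: spheroids exposed to compounds for seven days before readout; 100% = DMSO vehicle control viability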
Details: second compound 0.0316 µM; first compound 3.16 µM; stronger effect = lower value; spheroids with HUVEC and MSC
Rule: viability, T/C below 90% gives satisfied, anything at or above gives not satisfied.

The examples below pair each entry with its known result.
C=CC(=O)N1CCN(c2nc(=O)n(-c3c(C)ccnc3C(C)C)c3nc(-c4c(O)cccc4F)c(F)cc23)C(C)C1 (stereo not given) + COC1C(OC(N)=O)C(O)C(Oc2ccc3c(O)c(NC(=O)c4ccc(O)c(CC=C(C)C)c4)c(=O)oc3c2C)OC1(C)C : not satisfied
Nc1ccn(C2OC(CO)C(O)C2(F)F)c(=O)n1 (stereo not given) + Nc1ccc(C#CCN(C(=O)Cc2ncc(C(F)(F)F)cc2C(F)(F)F)c2ccc(F)cc2)nn1 : satisfied
CCCS(=O)(=O)Nc1ccc(F)c(C(=O)c2c[nH]c3ncc(-c4ccc(Cl)cc4)cc23)c1F + Nc1ccc(C#CCN(C(=O)Cc2ncc(C(F)(F)F)cc2C(F)(F)F)c2ccc(F)cc2)nn1 : satisfied

Confirm or reject: viability, T/C of CC(C)n1c(=O)n(C)c2cnc3cc(F)c(-c4ccc(OCCCN5CCCCC5)nc4)cc3c21 + Nc1ccc(C#CCN(C(=O)Cc2ncc(C(F)(F)F)cc2C(F)(F)F)c2ccc(F)cc2)nn1 lies strictly below 90%
not satisfied

Determine if CCc1cc2c(N3CCc4c(cc(Cn5ccnc5)cc4-c4cn(C)nc4C(F)(F)F)C3=O)cc(C)nc2c(OC)n1 + COC1C(OC(N)=O)C(O)C(Oc2ccc3c(O)c(NC(=O)c4ccc(O)c(CC=C(C)C)c4)c(=O)oc3c2C)OC1(C)C shows viability, T/C strictly lower than 90%.
not satisfied

Determine whether this molecule shows viability, T/C lower than 90% (ties excluded): O=C(c1cc(Cc2n[nH]c(=O)c3ccccc23)ccc1F)N1CCN(C(=O)C2CC2)CC1 + COC1C(OC(N)=O)C(O)C(Oc2ccc3c(O)c(NC(=O)c4ccc(O)c(CC=C(C)C)c4)c(=O)oc3c2C)OC1(C)C
not satisfied

Given the entry CCCS(=O)(=O)Nc1ccc(F)c(C(=O)c2c[nH]c3ncc(-c4ccc(Cl)cc4)cc23)c1F + Cc1cccc(N(C)C(=O)C2C(O)CCN2c2nc(C)cc(C(F)(F)F)c2C#N)c1 , would its reported viability, T/C be below 90%?
not satisfied

Strictly below 90%: is that where viability, T/C of CNCc1ccc(-c2[nH]c3cc(F)cc4c3c2CCNC4=O)cc1 + Nc1ccc(C#CCN(C(=O)Cc2ncc(C(F)(F)F)cc2C(F)(F)F)c2ccc(F)cc2)nn1 sits?
not satisfied

In plain terms, does COc1ccc([C@@H](O)c2cc(-c3ncnc4cc(N5CCOCC5)ccc34)c(F)cc2Cl)nn1 + Cc1cccc(N(C)C(=O)C2C(O)CCN2c2nc(C)cc(C(F)(F)F)c2C#N)c1 come in under 90% for viability, T/C?
not satisfied
